procedure details: qHTS profiling of the MIPE4 collection as inhibitors of Plasmodium falciparum (3D7) proliferation (AID 743344);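 also: scaled between DMSO vehicle wells and 0.29 µM artemisinin as full inhibition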
test context: P. falciparum 3D7 in erythrocytes, SYBR Green DNA fluorescence, 72 h; at 28.5 µM unless noted
Hi there, I'd appreciate the recorded parasite growth, % of DMSO control for every entry that follows.
One number for each entry, in %.

# molecule, readout units, parasite growth, % of DMSO control
data = [
    ("CCc1cccc(CC)c1NC(=O)N1Cc2[nH]nc(NC(=O)c3ccc(N4CCN(C)CC4)cc3)c2C1", "%", 19),
    ("O=C1Nc2ccc(I)cc2C1=Cc1cc(Br)c(O)c(Br)c1", "%", 20.7),
    ("O=C1CCCC(=O)C1C(=O)c1ccc(C(F)(F)F)cc1[N+](=O)[O-]", "%", 90.1),
    ("COc1cc([C@@H]2c3cc4c(cc3[C@@H](O[C@@H]3O[C@@H]5CO[C@@H](C)O[C@@H]5[C@H](O)[C@@H]3O)[C@H]3COC(=O)[C@H]23)OCO4)cc(OC)c1O", "%", 10.3),
    ("CCCC1OC2C[C@@H]3[C@H]4CCC5=CC(=O)C=C[C@]5(C)[C@H]4C(O)C[C@]3(C)[C@]2(C(=O)CO)O1 (stereo partly drawn)", "%", 11.7),
    ("CCCCc1ccc(NS(=O)(=O)c2ccc(C)c(C(=O)N3CCN(c4cccc(C)c4C)CC3)c2)cc1", "%", 232),
]

Here is another molecule to look at.
Task: Which value of parasite growth, % of DMSO control has been reported for CC1CNc2c(cccc2S(=O)(=O)N[C@@H](CCCN=C(N)N)C(=O)N2CC[C@@H](C)C[C@@H]2C(=O)O)C1 (stereo partly drawn) in the records?
Result: 82.3

* * *

procedure details: qHTS of pediatric cancer cell lines to identify multiple opportunities for drug repurposing: Primary screen for RD cells (AID 1347104); also: nearly all actives have a fitted effect of over 55% in size
test context: RD rhabdomyosarcoma viability, CellTiter-Glo luminescence, 48 h; series mostly up to 46 µM
Inconclusive results are not listed. The source made the active and inactive calls. Calls come from the whole dose curve; as a rule, active = well fitted cell-killing curve with a large enough effect; inconclusive = small, poorly fitted or top-dose-only effect; inactive = flat fitted curve, though single readings scatter.
Hi there, use one of these labels in your reply, thanks! 1 (yes) for active, 0 (no) for inactive

# compound, classification
rows = [
    ("C[C@H]1[C@H](O)O[C@@H]2O[C@@]3(C)CC[C@@H]4[C@H](C)CC[C@@H]1[C@@]24OO3", "1 (yes)"),
    ("Cc1cc(NC(=O)Nc2ccc(N(C)C)cc2)c2cc(F)cc(F)c2n1", "0 (no)"),
    ("C[C@]12C=CC(=O)C=C1CC[C@@H]1[C@@H]2[C@@H](O)C[C@@]2(C)[C@@H]1CC[C@]2(O)C(=O)CO", "0 (no)"),
    ("CN[C@@H]1CN(c2ccc3c(=O)c(C(=O)O)cn(-c4nccs4)c3n2)C[C@@H]1OC", "1 (yes)"),
    ("CCCCOCCOc1nc(-c2ccc(C(=O)O)c(F)c2)sc1C", "0 (no)"),
    ("O[C@@H](COc1cccc2ncccc12)CN1CCN(C2c3ccccc3[C@@H]3[C@H](c4ccccc42)C3(F)F)CC1 (some centres undefined)", "1 (yes)"),
]

Task: Name the outcome recorded for CCC(C)SSc1ncc[nH]1 (centres undefined) in the assay.
Result: 1 (yes)

Task: Name the outcome recorded for CC[C@H](C)C(=O)O[C@H]1C[C@H](O)C=C2C=C[C@H](C)[C@H](CC[C@@H](O)C[C@@H](O)CC(=O)O)[C@H]21 in the assay.
Result: 0 (no)

Task: Name the outcome recorded for Cc1cc(CS(=O)(=O)c2ccccc2)cc(OCc2ccc(CN3CCC[C@H]3CO)cc2)c1 in the assay.
Result: 1 (yes)
